- Tested on: Malme-3M
- measurement_protocol: NCI tumour cell line growth inhibition, 48 h
Activity calls are given as the source filed them. Rule as the data show it: active = GI50 up to about 1.1 µM and inactive = higher.
Below, each entry is listed with its recorded GI50.

Data request: State its GI50 for this compound: OC1(C23CC4CC(CC(C4)C2)C3)CSCC1(O)C12CC3CC(CC(C3)C1)C2 (stereo not given)
Data returned: > 100 µM (inactive)

Data request: Return the recorded GI50 value; entry: CC1(C)CC(=O)c2c(-c3ccc(Cl)cc3)c(C#N)c(=S)n(C3OC(CO)C(O)C(O)C3O)c2C1 (stereo not given)
Data returned: 31 µM (inactive)

----------
- Tested on: IGROV-1
- measurement_protocol: NCI tumour cell line growth inhibition, 48 h
The source made the active and inactive calls. No stated cut-off is given here; in the data, active = GI50 up to about 1.1 µM and inactive = higher.
Respond with a class label; see active, inactive

>>> category_label("N=C(N)Nc1ccc(CC(N)C(=O)O)cc1 (stereo unspecified)")
"inactive"

Data request: Call for entry c1ccc2[nH]c(CNc3ccc(C4C[Se]N=N4)cc3)nc2c1 (stereo unspecified) :
Data returned: inactive

Data request: // outcome(item) with item = "Cn1nc2ccccc2cc1=O"
Data returned: inactive
